src = the supplement of paper PMC11208160

- Test Protocol: recombinant UMI read abundance after kanamycin selection (control-corrected) (log10(CPM+1)); higher = more efficient recombination; extreme values may be limits of the assay; sequences stand for … in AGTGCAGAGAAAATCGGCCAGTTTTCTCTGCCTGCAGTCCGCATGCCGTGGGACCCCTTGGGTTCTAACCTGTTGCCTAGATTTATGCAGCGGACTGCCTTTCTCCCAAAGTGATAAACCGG…AGGTTGGTTTCACT; site = the 11-nt donor;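 note: IS621 bridge recombinase in Escherichia coli cells against a fixed T5 target plasmid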
Decide by recombinant UMI read abundance (log10): equal to or exceeding 0.01 means label 1, less means label 0.

CAATGCTCATGGACCGGTTTTCCCGGTAATCCGTATTTGAA (site CAATGCTCTTC) ... label 1
GACAAACCATGGACCGGTTTTCCCGGTAATCCGTATTTGGT (site GACAAACCTCC) ... label 1
GTATTCGCATGGACCGGTTTTCCCGGTAATCCGTATTTGCG (site GTATTCGCTCG) ... label 1
TCCACGCCATGGACCGGTTTTCCCGGTAATCCGTATTTGTA (site TCCACGCCTTA) ... label 1
ATGACGCCATGGACCGGTTTTCCCGGTAATCCGTATTTGGA (site ATGACGCCTTC) ... label 1
AATGCAACATGGACCGGTTTTCCCGGTAATCCGTATTTGCT (site AATGGAACTAG) ... label 0
CTCTATACATGGACCGGTTTTCCCGGTAATCCGTATTTGCT (site CTCTAGACTAG) ... label 0
CCTAAAGCATGGACCGGTTTTCCCGGTAATCCGTATTTGAG (site CCTAAAGCTAT) ... label 0

Does the reported recombinant UMI read abundance (log10) for AGGAAGCCATGGACCGGTTTTCCCGGTAATCCGTATTTGCA (site AGGAAGCCTTG) fall at or above the 0.01 mark?
label 0
